# credit: patent US20230096028A1

Field: pIC50. Provide a value for each of the compounds that follow.
system: PC-9 cells (EGFR Ex19Del); experiment: Potency Assay: pERK (SOS1 pERK IC50 Assay, AlphaLISA SureFire Ultra p-ERK1/2); format: cell-based; conditions: Homo sapiens; PC-9 cells (EGFR Ex19Del), 1 hour incubation, AlphaLISA p-ERK1/2; read-out: SOS1 pERK IC50
pIC50: −log10 of the molar value.

Below, each entry is followed by its recorded pIC50 result.
In [3]: df
Out[3]:
                              smiles_record  result
0  COC1(C(=O)N2Cc3nc(Cl)nc(N[C@H](C)c4cccc5c4OCC5(F)F)c3C2)CCOCC1  > 6.00
1  Cc1c(C(F)F)cccc1[C@@H](C)Nc1nc(Cl)nc2c1CN(C(=O)N1CCOCC1)C2  > 6.00
2  C[C@@H](Nc1nc(Cl)nc2c1CN(C(=O)N1C[C@H]3CN(C)C[C@H]3C1)C2)c1cccc(C(F)F)c1F  > 6.00

Give pIC50 for each of the items listed below.
1. C[C@@H](Nc1nc(Cl)nc2c1CN(C(=O)N1CCOCC1)C2)c1cccc(C(F)(F)OC2CC2)c1
2. COc1ccc(CC(=O)N2Cc3nc(Cl)nc(N[C@H](C)c4cc(N)cc(C(F)(F)F)c4)c3C2)cc1OC
3. C[C@@H](Nc1nc(OC(F)(F)F)nc2c1CN(C(=O)N1CCOCC1)C2)c1cc(N)cc(C(F)(F)F)c1
4. C[C@@H](Nc1nc(Cl)nc2c1CN(C(=O)C1CCN(C3COC3)CC1)C2)c1cccc(C(F)F)c1F

Result:
1. < 6.00
2. > 6.00
3. > 6.00
4. < 6.00
